Here, each record is paired with measured pIC50 data.
- assay text: Cytotoxicity against human HL60 cells after 72 hrs by alamar blue assay
- Assay type: functional, cell-based
- experimental setup: HL-60, 72 h
Scale note: pIC50 = -log10(concentration in M).

[[record]]
structure_smiles = "Cn1cccc1CNC(=S)SCCC#N"
measured_endpoint = "pIC50"
readout_number = 3.55

[[record]]
structure_smiles = "N#CCCSC(=S)NCc1cccnc1"
measured_endpoint = "pIC50"
readout_number = 6.13


Exercise: Specify reported pIC50 for the compound shown: `N#CCCSC(=S)NCc1cnc2ccccc2c1`
Key: 5.29

Exercise: Look up and report measured pIC50 for this entry: `Cc1cc(CNC(=S)SCCC#N)n(C)n1`
Key: 5.38

Exercise: Using known records, supply pIC50 for `Cc1c(CNC(=S)SCCC#N)cnn1-c1ccccc1`
Key: 5.22
